Data origin, for the record: patent US10760052B2

Listed next: entries and their corresponding Concentration of FLNA-Binding Compound as Agonist 1 μM + BFNA.
system.name: mu opiate receptor (MOR) (Rattus norvegicus)
Construct: from tissue; host or cells: striatum (membrane preparation)
Sequence (P33535 whole entry): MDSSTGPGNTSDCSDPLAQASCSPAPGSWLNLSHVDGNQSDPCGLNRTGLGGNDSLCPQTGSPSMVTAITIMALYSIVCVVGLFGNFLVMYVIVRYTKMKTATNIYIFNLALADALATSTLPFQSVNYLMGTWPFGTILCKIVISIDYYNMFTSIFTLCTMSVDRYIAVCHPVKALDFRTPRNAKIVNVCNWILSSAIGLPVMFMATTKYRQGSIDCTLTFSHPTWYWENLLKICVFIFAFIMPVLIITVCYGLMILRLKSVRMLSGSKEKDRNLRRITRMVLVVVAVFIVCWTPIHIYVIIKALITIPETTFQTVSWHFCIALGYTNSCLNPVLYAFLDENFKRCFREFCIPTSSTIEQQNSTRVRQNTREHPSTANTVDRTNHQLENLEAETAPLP
Type: biochemical
condition.notes: [35S]GTPγS binding to Gαo in striatal membranes; compound 1 μM plus 1 μM β-funaltrexamine (MOR antagonist)
assay.endpoint: Concentration of FLNA-Binding Compound as Agonist 1 μM + BFNA (%)

{"columns": ["compound", "value"],
 "data": [
  ["COc1ccc(S(=O)(=O)N2CCC3(CC2)OCCN3S(=O)(=O)c2ccc(OC)cc2)cc1", 62.4],
  ["O=S(=O)(c1cccc(OC(F)(F)F)c1)N1CCC2(CC1)OCCN2S(=O)(=O)c1cccc(OC(F)(F)F)c1", 166.4],
  ["COc1ccc(CCC(O)CC2c3c(cc4c(c3OC)OCO4)CC[N+]2(C)C)cc1 (centres unmarked)", 133.2],
  ["CC1CCC(C(C)C)C(OCC(O)Cn2cccc2)C1 (centres unmarked)", 107.0],
  ["COc1c2c(cc3c1OCO3)CCN(CC(O)COC1CC(C)CCC1C(C)C)C2 (centres unmarked)", 10.7],
  ["CC1CN(CC(O)COc2ccc(Cl)cc2)CC(C)O1 (centres unmarked)", 116.5],
  ["COc1ccccc1S(=O)(=O)N1CCC2(CC1)OCCN2S(=O)(=O)c1ccccc1OC", 107.7],
  ["CC1CCC(C(C)C)C(OCC(CN2CC(C)OC(C)C2)NCc2ccccc2)C1 (centres unmarked)", 118.2],
  ["COc1ccc(S(=O)(=O)N2CCCC3(C2)OCCN3S(=O)(=O)c2ccc(OC)cc2)cc1 (centres unmarked) [Compound C0145M]", 87.0],
  ["CC1CN(CC(O)COc2cccc(C(F)(F)F)c2)CC(C)O1 (centres unmarked)", 211.6],
  ["CC(=O)c1ccc(S(=O)(=O)N2CCC3(CC2)NC(=O)CN3S(=O)(=O)c2ccc(C(C)=O)cc2)cc1", 38.1],
  ["COc1cccc(CC(=O)CC2c3c(cc4c(c3OC)OCO4)CC[N+]2(C)C)c1OC (centres unmarked)", 117.1],
  ["O=S(=O)(c1ccc(Br)c(C(F)(F)F)c1)N1CCC2(CC1)OCCN2S(=O)(=O)c1ccc(Br)c(C(F)(F)F)c1", 136.7],
  ["COc1c2c(cc3c1C(CC(=O)CCc1ccc(Cl)cc1)[N+](C)(C)CC3)OCO2 (centres unmarked)", 49.6],
  ["COc1ccc(C(=O)N2CCC3(CC2)OCCN3S(=O)(=O)c2ccc(OC)cc2)cc1", 106.5],
  ["O=S(=O)(c1ccc(Oc2ccccc2)cc1)N1CCC2(CC1)OCCN2S(=O)(=O)c1ccc(Oc2ccccc2)cc1 [Compound C0149M]", 93.4],
  ["CC1CCC(C(C)C)C(OCC(O)CN2CCc3ccccc32)C1 (centres unmarked)", 44.9],
  ["CC1CCN(CC(O)COC2CC(C)CCC2C(C)C)CC1 (centres unmarked)", 18.2],
  ["CC1CCC(C(C)C)C(OCC(O)CN2CCCCCC2)C1 (centres unmarked)", 86.1],
  ["CC1CCC(C(C)C)C(OCC(O)CN2CCN(CCN3CCOCC3)CC2)C1 (centres unmarked)", 47.0],
  ["COc1c2c(cc3c1C(CC(=O)c1ccc(F)c(F)c1)[N+](C)(C)CC3)OCO2 (centres unmarked)", 18.6],
  ["COc1cccc(CCC(=O)CC2c3c(cc4c(c3OC)OCO4)CC[N+]2(C)C)c1 (centres unmarked)", 41.8],
  ["O=S(=O)(c1ccc(-c2ccccc2)cc1)N1CCC2(CC1)OCCN2S(=O)(=O)c1ccc(-c2ccccc2)cc1", 89.1],
  ["COc1ccc(NC(=O)N2CCC3(CC2)OCCN3C(=O)Nc2ccc(OC)cc2)cc1 [Compound C0151M]", 212.8],
  ["O=S(=O)(c1ccc(C(F)(F)F)cc1)N1CCC2(CC1)OCCN2S(=O)(=O)c1ccc(C(F)(F)F)cc1", 184.4],
  ["CC1CCC(C(C)C)C(OCC(O)CN2CC(C)OC(C)C2)C1 (centres unmarked) [Compound A0032-1]", 224.5],
  ["COc1ccc(C(=O)CC2c3c(cc4c(c3OC)OCO4)CC[N+]2(C)C)cc1C (centres unmarked)", 42.9],
  ["O=C(OCc1ccccc1)c1ccc(S(=O)(=O)N2CCC3(CC2)OCCN3S(=O)(=O)c2ccc(C(=O)OCc3ccccc3)cc2)cc1", 110.6],
  ["Cc1ccc(C(C)C)c(OCC(O)CN2CC(C)OC(C)C2)c1 (centres unmarked)", 116.7],
  ["O=S(=O)(c1ccc(Br)cc1Br)N1CCC2(CC1)OCCN2S(=O)(=O)c1ccc(Br)cc1Br", 114.2],
  ["CC1CCC(C(C)C)C(OCC(O)CN(C(C)C)C(C)C)C1 (centres unmarked)", 104.6],
  ["Nc1ccc(C(=O)N2CCC3(CC2)OCCN3S(=O)(=O)c2ccc(N)cc2)cc1", 23.2]
]}
